Overview of reported IC50 across a group of compounds:
Target: human C1s protein (Homo sapiens)
Construct: A104
Sequence (P09871 16-688): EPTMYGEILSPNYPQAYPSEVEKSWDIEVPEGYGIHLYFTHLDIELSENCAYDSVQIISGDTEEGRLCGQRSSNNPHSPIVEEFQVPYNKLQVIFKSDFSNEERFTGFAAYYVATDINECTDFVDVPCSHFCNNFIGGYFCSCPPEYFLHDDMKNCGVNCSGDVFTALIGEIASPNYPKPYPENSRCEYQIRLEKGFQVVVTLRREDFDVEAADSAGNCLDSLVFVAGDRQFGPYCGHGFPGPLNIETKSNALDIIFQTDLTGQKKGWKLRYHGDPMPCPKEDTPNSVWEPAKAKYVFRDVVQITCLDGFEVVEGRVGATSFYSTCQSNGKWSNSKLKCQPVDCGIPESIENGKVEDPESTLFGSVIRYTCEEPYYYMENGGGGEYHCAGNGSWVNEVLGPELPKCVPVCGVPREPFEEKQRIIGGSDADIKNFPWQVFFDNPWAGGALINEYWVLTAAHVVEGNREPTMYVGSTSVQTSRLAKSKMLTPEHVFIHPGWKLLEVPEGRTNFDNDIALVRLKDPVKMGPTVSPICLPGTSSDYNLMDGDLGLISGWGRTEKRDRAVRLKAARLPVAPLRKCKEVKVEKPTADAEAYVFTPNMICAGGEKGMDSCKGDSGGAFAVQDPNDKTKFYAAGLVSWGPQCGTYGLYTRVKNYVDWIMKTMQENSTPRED
Assay: C1s enzymatic assay (hydrolysis of YLGR-Rh110-dPro)
Format: biochemical
Conditions: substrate YLGR-Rh110-dPro 20 μM, 15 min pre-incubation, 60 min RT, fluorescence, read-out: hC1s pIC50 (converted)
Structures can show the parent of a compound that is named as a salt.
Output spec: scalar in nM, unitless text.

Worked cases, IC50 given:
{"COMPOUND": "COCc1cc(OC)c(-c2ccc3c(N)cnnc3c2)cc1B(O)O [Example 137, Formic Acid Salt]", "TARGET_OR_SYSTEM": "human C1s protein (Homo sapiens)", "UNITS_SYMBOL": "nM", "EXPERIMENTAL_VALUE": 2.82}
{"COMPOUND": "CCc1ccc(B(O)O)cc1-c1ccc2c(N)nnc(C)c2c1 [Example 12, Formic Acid Salt]", "TARGET_OR_SYSTEM": "human C1s protein (Homo sapiens)", "UNITS_SYMBOL": "nM", "EXPERIMENTAL_VALUE": 8.13}
{"COMPOUND": "COc1c(-c2ccc3c(N)cnnc3c2)cc(B(O)O)cc1C1CCOCC1 [Example 58]", "TARGET_OR_SYSTEM": "human C1s protein (Homo sapiens)", "UNITS_SYMBOL": "nM", "EXPERIMENTAL_VALUE": 3.39}
{"COMPOUND": "COc1ccc(B(O)O)c(F)c1-c1ccc2c(N)cnnc2c1 [Example 48]", "TARGET_OR_SYSTEM": "human C1s protein (Homo sapiens)", "UNITS_SYMBOL": "nM", "EXPERIMENTAL_VALUE": 4.07}
{"COMPOUND": "Cc1nnc(N)c2ccc(-c3cc(B(O)O)ccc3F)cc12 [Example 19, formic acid salt]", "TARGET_OR_SYSTEM": "human C1s protein (Homo sapiens)", "UNITS_SYMBOL": "nM", "EXPERIMENTAL_VALUE": 1.35}
{"COMPOUND": "Cc1cc2cc(-c3cccc(B(O)O)c3)ccc2c(N)n1 [Example 13, Trifluoroacetic Acid Salt]", "TARGET_OR_SYSTEM": "human C1s protein (Homo sapiens)", "UNITS_SYMBOL": "nM", "EXPERIMENTAL_VALUE": 37.2}

Prompt: Need IC50 of Cc1nnc(N)c2ccc(-c3cc(B(O)O)cc(F)c3C#N)cc12 [Example 36, Formic Acid Salt] , thanks.
Response: 1.91

Prompt: Need IC50 of Nc1cnnc2cc(-c3ccc(CC(=O)O)c(B(O)O)c3)ccc12 [Example 127] , thanks.
Response: 13.2

Prompt: Need IC50 of Cc1ncc(Oc2ccc(B(O)O)cc2-c2ccc3c(N)cnnc3c2)s1 [Example 171, Formic Acid Salt] , thanks.
Response: 1.29

Prompt: Need IC50 of Cc1nnc(N)c2ccc(-n3cc(B(O)O)cn3)cc12 [Example 23] , thanks.
Response: 363

Prompt: Need IC50 of Cc1cc(OC(F)F)c(-c2ccc3c(N)cnnc3c2)cc1B(O)O [Example 108] , thanks.
Response: 1.86

Prompt: Need IC50 of Cc1nnc(N)c2ccc(-c3cc(B(O)O)cc(C(F)(F)F)c3)cc12 [Example 38] , thanks.
Response: 1.05

Prompt: Need IC50 of COc1ccc(B(O)O)cc1-c1ccc2c(N)nnc(C)c2c1 [Example 7, Formic Acid Salt] , thanks.
Response: 0.891

Prompt: Need IC50 of COc1ccc(B(O)O)cc1-c1ccc2c(N)ccnc2c1 [Example 109] , thanks.
Response: 871

Prompt: Need IC50 of CS(=O)(=O)c1ccc(B(O)O)cc1-c1ccc2c(N)cnnc2c1 [Example 164, formic acid salt] , thanks.
Response: 12.6

Prompt: Need IC50 of COc1ccc(B(O)O)cc1-c1ccc2nccc(N)c2c1 [Example 129, Formic Acid Salt] , thanks.
Response: 6920

Prompt: Need IC50 of COc1cc(C(F)(F)F)c(-c2ccc3c(N)nnc(C)c3c2)cc1B(O)O [Example 63] , thanks.
Response: 2.14

Prompt: Need IC50 of COc1cc2c(cc1-c1ccc3c(N)nnc(C)c3c1)B(O)OC2 [Example 20] , thanks.
Response: 10

Prompt: Need IC50 of COc1cc(F)c(B(O)O)cc1-c1ccc2c(N)nnc(C)c2c1 [Example 25] , thanks.
Response: 1.7

Prompt: Need IC50 of C[C@@H]1C[C@@H](Oc2ccc(B(O)O)cc2-c2ccc3c(N)cnnc3c2)C[C@H](C)O1 [Example 121] , thanks.
Response: 4.9
